# Test system: MCF7
# Assay comment: NCI tumour cell line growth inhibition, 48 h
Calls of active or inactive are those of the source. Cut-off read from the data, not from the text of the source: active = GI50 up to about 1.1 µM and inactive = higher.
In this exercise, the only acceptable responses are Y = active, N = inactive

Here are 3 compounds together with their reported answers.
O=C1CCCC2=C1CC1=C(CCCC1=O)N2c1ccccc1C(=O)O | N
COc1ccccc1NC(=S)N/N=C(/C)c1ccccn1 | Y
CC1=NN=C(N)N/C1=C\C(Sc1ccc(Cl)cc1)c1ccc(Cl)cc1Cl (stereo not given) | N

// query In this assay, the call recorded for CC(C)c1cc(Cl)nc(Cl)n1 was what?
// result N

// query In this assay, the call recorded for N=c1oc2c(Br)cc(Br)cc2cc1C(=O)Nc1ccccn1 was what?
// result N

// query In this assay, the call recorded for COc1cc(OC)c2c(O)c3c(cc2c1)CC(C)(C)CC3=O was what?
// result N

// query In this assay, the call recorded for COc1ccc2[nH]c(C(O)(Cc3cccnc3)Cc3cccnc3)cc2c1 was what?
// result N

Each recorded value in this set is attributed to ChEMBL document CHEMBL1201862.
